tgt: androgen receptor (AR) (Homo sapiens, UniProt P10275)
test method notes: Degradation of androgen receptor (AR) protein in VCaP cells by Western blot
Assay type: cell-based
details: percentage of degraded AR at 100 nM, VCaP cells, 16 h
Below is a list of entries, each paired with its recorded inhibition at 0.1 µM value.
quantity: inhibition at 0.1 µM

N#Cc1ccc(O[C@H]2CC[C@H](NC(=O)c3cnc(N4CCC(N5CC6CN(c7cc8c(cc7F)C(=O)N(C7CCC(=O)NC7=O)C8=O)CC6C5)CC4)cn3)CC2)cc1Cl (some centres unmarked) [Compound 64] :: 50 to 79%
CC1(C)[C@H](Oc2ccc(C#N)c(Cl)c2)C(C)(C)[C@H]1N1Cc2nc(C#CC3CCN(C4CN(c5cc6c(cc5F)C(=O)N(C5CCC(=O)NC5=O)C6=O)C4)CC3)ccc2C1=O (some centres unmarked) [Compound 318] :: 50 to 79%
N#Cc1ccc(O[C@H]2CC[C@H](NC(=O)c3ccc(N4CCN([C@@H]5C[C@@H]6CN(c7ccc8c(c7)C(=O)N(C7CCC(=O)NC7=O)C8=O)C[C@@H]6C5)CC4)nn3)CC2)cc1Cl (some centres unmarked) [Compound 298] :: < 25%
N#Cc1ccc(O[C@H]2CC[C@H](NC(=O)c3cnc(N4CCC(CN5CCC6(CCN(c7cc8c(cc7F)C(=O)N(C7CCC(=O)NC7=O)C8=O)C6)C5)CC4)cn3)CC2)cc1Cl (some centres unmarked) [Compound 141] :: > 80%
N#Cc1ccc(OC2C[C@@H]3CN(C(=O)c4cnc(N5CCC(CN6CCN(c7ccc8c(c7)C(=O)N(C7CCC(=O)NC7=O)C8=O)CC6)CC5)cn4)C[C@@H]3C2)cc1Cl (some centres unmarked) [Compound 174] :: < 25%
CC1(C)[C@H](Oc2ccc(C#N)c(Cl)c2)C(C)(C)[C@H]1N1Cc2nc(N3CCC(CN4CCN(c5cc6c(cc5F)CN(C5CCC(=O)NC5=O)C6=O)CC4)CC3)ccc2C1=O (some centres unmarked) [Compound 205] :: < 25%
N#Cc1ccc(O[C@H]2CC[C@H](NC(=O)c3cnc(N4CCC(N5CC6(CCN(c7ccc8c(c7)C(=O)N(C7CCC(=O)NC7=O)C8=O)CC6)C5)CC4)cn3)CC2)cc1Cl (some centres unmarked) [Compound 229] :: > 80%
N#Cc1ccc(O[C@H]2C[C@H]3C[C@@H](NC(=O)c4cnc(N5CCC(CN6CCN(c7ccc8c(c7)C(=O)N(C7CCC(=O)NC7=O)C8=O)CC6)CC5)cn4)C[C@H]3C2)cc1Cl (some centres unmarked) [Compound 303] :: < 25%
N#Cc1ccc(O[C@H]2CC[C@H](NC(=O)c3ccc(N4CCC(NC5CCN(c6ccc7c(c6)C(=O)N(C6CCC(=O)NC6=O)C7=O)CC5)CC4)nn3)CC2)cc1Cl (some centres unmarked) [Compound 118] :: 25 to 49%
CC1(C)[C@H](Oc2ccc(C#N)c(Cl)c2)C(C)(C)[C@H]1N1Cc2nc(C#CC3CCN(C4CN(c5ccc6c(c5)C(=O)N(C5CCC(=O)NC5=O)C6=O)C4)CC3)ccc2C1=O (some centres unmarked) [Compound 317] :: 50 to 79%
CC1(C)[C@H](Oc2ccc(C#N)c(Cl)c2)C(C)(C)[C@H]1N1Cc2nc(C#CC3CCN(CC4CCN(c5cc6c(cc5F)C(=O)N(C5CCC(=O)NC5=O)C6=O)CC4)CC3)ccc2C1=O (some centres unmarked) [Compound 333] :: 50 to 79%
N#Cc1ccc(O[C@H]2CC[C@H](NC(=O)c3ccc(N4CCC(CN5CCC6(CCN(c7cc8c(cc7F)C(=O)N(C7CCC(=O)NC7=O)C8=O)C6)C5)CC4)nn3)CC2)cc1Cl (some centres unmarked) [Compound 142] :: > 80%
N#Cc1ccc(O[C@H]2CC[C@H](NC(=O)c3cnc(N4CCN([C@@H]5C[C@@H]6CN(c7ccc8c(c7)C(=O)N(C7CCC(=O)NC7=O)C8=O)C[C@@H]6C5)CC4)cn3)CC2)cc1Cl (some centres unmarked) [Compound 296] :: < 25%
N#Cc1ccc(O[C@H]2CC[C@H](NC(=O)c3cnc(N4CC(N5CC6CN(c7cc8c(cc7F)C(=O)N(C7CCC(=O)NC7=O)C8=O)CC6C5)C4)cn3)CC2)cc1Cl (some centres unmarked) [Compound 225] :: 50 to 79%
N#Cc1ccc(O[C@H]2CC[C@H](NC(=O)c3ccc(N4CCC5(CC4)CN(C4CCN(c6cc7c(cc6F)C(=O)N(C6CCC(=O)NC6=O)C7=O)CC4)C5)nn3)CC2)cc1Cl (some centres unmarked) [Compound 71] :: > 80%
N#Cc1ccc(O[C@H]2CC[C@H](N3Cc4nc(C#CC5CCN(C6CCN(c7cc8c(cc7F)C(=O)N(C7CCC(=O)NC7=O)C8=O)CC6)CC5)ccc4C3=O)CC2)cc1Cl (some centres unmarked) [Compound 324] :: 25 to 49%
N#Cc1ccc(O[C@H]2CC[C@H](NC(=O)c3ccc(N4CCC(O[C@@H]5CCN(c6ccc7c(c6)C(=O)N(C6CCC(=O)NC6=O)C7=O)C5)CC4)cc3)CC2)cc1Cl (some centres unmarked) [Compound 111] :: < 25%
N#Cc1ccc(O[C@H]2CC[C@H](NC(=O)c3cnc(N4CCC(CN5CC6CN(c7cc8c(cc7F)C(=O)N(C7CCC(=O)NC7=O)C8=O)CC6C5)CC4)cn3)CC2)cc1Cl (some centres unmarked) [Compound 255] :: 50 to 79%
N#Cc1ccc(O[C@H]2CC[C@H](NC(=O)c3ccc(N4CCN(CC5C[C@@H]6CN(c7cc8c(cc7F)C(=O)N(C7CCC(=O)NC7=O)C8=O)C[C@@H]6C5)CC4)nn3)CC2)cc1Cl (some centres unmarked) [Compound 226] :: 50 to 79%
N#Cc1ccc(O[C@H]2CC[C@H](NC(=O)c3cnc(N4CCC(CN5CCC6(CC5)CN(c5cc7c(cc5F)C(=O)N(C5CCC(=O)NC5=O)C7=O)C6)CC4)nn3)CC2)cc1Cl (some centres unmarked) [Compound 158] :: > 80%

====

Below is a list of entries, each paired with its recorded Dmax value.
tgt: UniProt P10275
Sequence (P10275 1-920): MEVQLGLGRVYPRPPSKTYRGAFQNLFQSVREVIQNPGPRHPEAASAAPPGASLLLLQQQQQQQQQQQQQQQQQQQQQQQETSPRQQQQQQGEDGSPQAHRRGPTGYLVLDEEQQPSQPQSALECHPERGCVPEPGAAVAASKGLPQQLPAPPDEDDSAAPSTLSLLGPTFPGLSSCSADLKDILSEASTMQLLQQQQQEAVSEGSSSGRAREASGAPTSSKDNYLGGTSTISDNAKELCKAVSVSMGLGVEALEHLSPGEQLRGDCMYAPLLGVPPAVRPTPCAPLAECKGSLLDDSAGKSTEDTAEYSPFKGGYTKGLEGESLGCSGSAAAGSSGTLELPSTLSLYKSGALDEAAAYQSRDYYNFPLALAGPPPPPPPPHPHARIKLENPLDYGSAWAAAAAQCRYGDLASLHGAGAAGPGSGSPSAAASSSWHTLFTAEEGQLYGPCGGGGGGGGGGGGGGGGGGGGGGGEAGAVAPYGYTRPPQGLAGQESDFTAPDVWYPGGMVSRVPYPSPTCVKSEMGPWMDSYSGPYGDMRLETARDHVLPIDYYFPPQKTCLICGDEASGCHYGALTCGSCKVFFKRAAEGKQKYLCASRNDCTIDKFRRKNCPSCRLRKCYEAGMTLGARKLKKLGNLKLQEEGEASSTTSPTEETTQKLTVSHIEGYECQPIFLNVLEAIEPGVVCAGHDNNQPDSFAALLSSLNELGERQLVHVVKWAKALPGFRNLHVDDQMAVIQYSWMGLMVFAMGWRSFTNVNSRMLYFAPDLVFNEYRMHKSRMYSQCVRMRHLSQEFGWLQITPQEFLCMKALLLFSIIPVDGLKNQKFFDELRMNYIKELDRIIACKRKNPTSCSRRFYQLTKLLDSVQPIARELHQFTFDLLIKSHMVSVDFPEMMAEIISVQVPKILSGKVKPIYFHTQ
test method notes: Degradation of androgen receptor (AR) protein in VCaP cells by ELISA
Assay type: cell-based
details: VCaP
quantity: Dmax

Cc1cc(O[C@H]2CC[C@H](NC(=O)c3ccc(N4CCC(CN5CCC6(CC5)CN(c5ccc7c(c5)C(=O)N(C5CCC(=O)NC5=O)C7=O)C6)CC4)nn3)CC2)ccc1C#N (stereo partly drawn) [Compound 275] :: > 80%
N#Cc1ccc(O[C@H]2CC[C@H](NC(=O)c3ccc(N4CCC(CN5CCC6(CC5)CN(c5cc7c(cc5F)C(=O)N(C5CCC(=O)NC5=O)C7=O)C6)CC4)nn3)CC2)cc1C(F)(F)F (stereo partly drawn) [Compound 152] :: > 80%
N#Cc1ccc(O[C@H]2CC[C@H](NC(=O)c3ccc(N4CC5(CCN(C6CCN(c7cc8c(cc7F)C(=O)N(C7CCC(=O)NC7=O)C8=O)CC6)C5)C4)nn3)CC2)cc1Cl (stereo partly drawn) [Compound 81] :: > 80%
